system: IGROV-1; test: Antiproliferative activity against human IGROV1 cell line after 48 hrs; assay type: functional; conditions: Homo sapiens, IGROV-1, 48 h
In this section, each of the compounds is paired with its reported GI50.

# COMPOUND, TARGET ENTITY, GI50, nM
data = [
    ("CCCC(=O)CC[C@@H](C)[C@H]1CC[C@H]2[C@@H]3[C@H](OC(C)=O)C[C@@H]4CC5(CC[C@]4(C)[C@H]3C[C@H](OC(C)=O)[C@]12C)OOC1(CCCCC1)OO5", "IGROV-1", 190),
    ("CC(=O)O[C@H]1C[C@H]2[C@@H]([C@H](OC(C)=O)C[C@@H]3CC4(CC[C@@]32C)OOC2(CCC(C)CC2)OO4)[C@@H]2CC[C@H]([C@H](C)CCC(=O)O)[C@@]12C (stereo in doubt; 18)", "IGROV-1", 1400),
    ("CCCOC(=O)CC[C@@H](C)[C@H]1CC[C@H]2[C@@H]3[C@H](OC(C)=O)C[C@@H]4CC5(CC[C@]4(C)[C@H]3C[C@H](OC(C)=O)[C@]12C)OOC1(CCC(C(=O)OCCC)CC1)OO5 (stereo in doubt; 5a)", "IGROV-1", 1990),
    ("CC(=O)O[C@H]1C[C@H]2[C@@H]([C@H](OC(C)=O)C[C@@H]3CC4(CC[C@@]32C)OOC2(CCC(C(=O)NCCN(C)C)CC2)OO4)[C@@H]2CC[C@H]([C@H](C)CCC(=O)NCCN(C)C)[C@@]12C (stereo in doubt; 11)", "IGROV-1", 900),
]
